system: mTORC1 over mTORC2; assay: mTORC1 over mTORC2 selectivity by comparing pS6K1 and pAKT IC50; type: cell-based; settings: by comparing pS6K1 and pAKT IC50, 90 min
Recorded endpoint: mTORC1 selective @ 90 min

{"columns": ["Compound", "Recorded endpoint", "Result"],
 "data": [
  ["CO[C@@H]1C[C@H](C[C@@H](C)[C@@H]2CC(=O)[C@H](C)/C=C(\\C)[C@@H](O)[C@@H](OC)C(=O)[C@H](C)C[C@H](C)/C=C/C=C/C=C(\\C)[C@H](OCC3COCCO3)C[C@@H]3CC[C@@H](C)[C@@](O)(O3)C(=O)C(=O)N3CCCC[C@H]3C(=O)O2)CC[C@H]1OC(F)F (stereo partly drawn)", "mTORC1 selective @ 90 min", "Yes"],
  ["CO[C@@H]1/C(C)=C/[C@@H](C)C(=O)C[C@@H]([C@H](C)C[C@@H]2CC[C@@H](OP(C)(C)=O)[C@H](OC)C2)OC(=O)[C@@H]2CCCCN2C(=O)C(=O)[C@]2(O)O[C@@H](CC[C@H]2C)C[C@H](OCC2COCCO2)/C(C)=C/C=C/C=C/[C@@H](C)C[C@@H](C)C(=O)[C@@H]1OC (stereo partly drawn)", "mTORC1 selective @ 90 min", "Yes"],
  ["CO[C@@H]1C[C@H](C[C@@H](C)[C@@H]2CC(=O)[C@H](C)/C=C(\\C)[C@@H](O)[C@@H](OC)C(=O)[C@H](C)C[C@H](C)/C=C/C=C/C=C(\\C)[C@@H](OCCOC3COC3)C[C@@H]3CC[C@@H](C)[C@@](O)(O3)C(=O)C(=O)N3CCCC[C@H]3C(=O)O2)CC[C@H]1OP(C)(C)=O", "mTORC1 selective @ 90 min", "Yes"]
]}

###

As shown below, each of these compounds has a reported pIC50 value.
test system: p-p70 S6 Kinase (Thr389) in MCF-7 cells; test: AlphaLISA Ultra pS6K1 assay; assay type: cell-based; details: Homo sapiens, 1.5 h; MCF7 cells, 90 min
pIC50: −log10 of the molar value.
Recorded endpoint: pIC50

{"columns": ["Compound", "Result"],
 "data": [
  ["COCCOCCO[C@H]1C[C@@H]2CC[C@@H](C)[C@@](O)(O2)C(=O)C(=O)N2CCCC[C@H]2C(=O)O[C@H]([C@H](C)C[C@@H]2CC[C@@H](O)[C@H](OC)C2)CC(=O)[C@H](C)/C=C(\\C)[C@@H](OC)[C@@H](OC)C(=O)[C@H](C)C[C@H](C)/C=C/C=C/C=C/1C", "8.00 to 9.00"],
  ["CO[C@@H]1/C(C)=C/[C@@H](C)C(=O)C[C@@H]([C@H](C)C[C@@H]2CC[C@@H](OP(C)(C)=O)[C@H](OC)C2)OC(=O)[C@@H]2CCCCN2C(=O)C(=O)[C@]2(O)O[C@@H](CC[C@H]2C)CC(OCCOCCOC2COC2)/C(C)=C/C=C/C=C/[C@@H](C)C[C@@H](C)C(=O)[C@@H]1OC (stereo partly shown)", "7.00 to 8.00"],
  ["CO[C@@H]1C[C@H](C[C@@H](C)[C@@H]2CC(=O)[C@H](C)/C=C(\\C)[C@@H](O)[C@@H](OC)C(=O)[C@H](C)C[C@H](C)/C=C/C=C/C=C(\\C)[C@@H](OCCOC3COC3)C[C@@H]3CC[C@@H](C)[C@@](O)(O3)C(=O)C(=O)N3CCCC[C@H]3C(=O)O2)CC[C@H]1O", "> 9.00"],
  ["CO[C@@H]1C[C@H](C[C@@H](C)[C@@H]2CC(=O)[C@H](C)/C=C(\\C)[C@@H](O)[C@@H](OC)C(=O)[C@H](C)C[C@H](C)/C=C/C=C/C=C(\\C)[C@H](OCCOC3COC3)C[C@@H]3CC[C@@H](C)[C@@](O)(O3)C(=O)C(=O)N3CCCC[C@H]3C(=O)O2)CC[C@H]1O", "8.00 to 9.00"]
]}
